Entry source: patent US20230117470A1

Study target: human TLR9 (Homo sapiens)
Experiment: TLR9 inhibition reporter assay (HEK-Blue cells, SEAP reporter, ODN2006 stimulation)
Measurement context: HEK-Blue cells overexpressing human TLR9, SEAP reporter, ODN2006 5 nM
Quantity measured: IC50 (µM)

[a] Cc1cc(-c2[nH]nc(C(=O)N[C@H]3CC[C@H](NC4CCOC(C)(C)C4)CC3)c2C(C)C)cn2ncnc12 (stereo partly shown) [Example 115]
[b] Cc1cc(-c2[nH]nc(C(=O)N3CCC(C(N)=O)CC3)c2C(C)C)cn2ncnc12 [Example 15]
### Prompt Decide: a or b , by lowest recorded IC50. Refer to your chosen item by its label in the answer.
### Response a

[P] Cc1cc(-c2[nH]nc(C(=O)NC3CCOCC3)c2C(C)C)cn2ncnc12 [Example 28]
[Q] Cc1cc(-c2[nH]nc(-c3cncc(NC(C)C)c3)c2C(C)C)cn2ncnc12 [Example 239]
[R] Cc1cc(-c2[nH]nc(C(=O)N[C@H]3CC[C@H](NCC4CCOCC4)CC3)c2C(C)C)cn2ncnc12 [Example 111]
### Prompt Order these by IC50, descending, and give the full ranking. Write the labels, ordered according to the request.
### Response Q, R, P
(Q: 9.93 µM, R: 3.93 µM, P: 0.645 µM)

---

Study target: human TLR9 (Homo sapiens, UniProt Q9NR96)
Sequence (Q9NR96 26-1032): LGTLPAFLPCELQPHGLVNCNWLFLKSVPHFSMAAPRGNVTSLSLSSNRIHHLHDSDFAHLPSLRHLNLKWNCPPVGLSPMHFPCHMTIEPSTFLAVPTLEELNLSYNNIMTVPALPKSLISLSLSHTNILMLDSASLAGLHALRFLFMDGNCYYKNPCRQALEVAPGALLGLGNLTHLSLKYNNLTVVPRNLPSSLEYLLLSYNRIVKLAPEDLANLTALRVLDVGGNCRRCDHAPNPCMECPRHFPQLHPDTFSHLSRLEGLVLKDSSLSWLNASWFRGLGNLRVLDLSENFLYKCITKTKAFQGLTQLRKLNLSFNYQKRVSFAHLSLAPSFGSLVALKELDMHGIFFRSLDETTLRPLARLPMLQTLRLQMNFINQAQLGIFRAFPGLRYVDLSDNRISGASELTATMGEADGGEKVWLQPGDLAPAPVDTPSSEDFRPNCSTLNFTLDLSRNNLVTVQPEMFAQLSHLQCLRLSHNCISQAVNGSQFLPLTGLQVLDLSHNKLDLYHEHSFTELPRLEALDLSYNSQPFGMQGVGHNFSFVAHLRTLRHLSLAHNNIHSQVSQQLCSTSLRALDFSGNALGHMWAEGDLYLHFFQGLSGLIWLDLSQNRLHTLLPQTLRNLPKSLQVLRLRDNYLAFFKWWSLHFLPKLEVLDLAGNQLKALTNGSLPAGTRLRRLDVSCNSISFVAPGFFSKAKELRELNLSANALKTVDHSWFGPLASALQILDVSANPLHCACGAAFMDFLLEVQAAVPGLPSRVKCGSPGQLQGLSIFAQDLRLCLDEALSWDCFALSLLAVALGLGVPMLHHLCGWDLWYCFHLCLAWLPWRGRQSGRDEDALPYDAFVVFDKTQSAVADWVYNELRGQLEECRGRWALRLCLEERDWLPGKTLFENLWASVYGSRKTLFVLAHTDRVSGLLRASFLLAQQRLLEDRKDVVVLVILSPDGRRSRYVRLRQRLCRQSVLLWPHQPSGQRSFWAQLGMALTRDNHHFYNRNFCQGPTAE
Experiment: TLR9 inhibition reporter assay (HEK-Blue cells, SEAP reporter, ODN2006 stimulation)
Measurement context: HEK-Blue cells overexpressing human TLR9, SEAP reporter, ODN2006 5 nM
pIC50: −log10 of the molar value.
Quantity measured: pIC50

COc1c(C)c(-c2[nH]nc(-c3ccc(C4CCN(CC5CCOCC5)CC4)cn3)c2C(C)C)cn2ncnc12 ... 4.79

[1] Cc1cc(-c2[nH]nc(C(=O)NC3CCCNC3)c2C(C)C)cn2ncnc12 (stereo not shown) [Example 67]
[2] Cc1cc(-c2[nH]nc(C(=O)NCC3CN(C)CCO3)c2C(C)C)cn2ncnc12 (stereo not shown) [Example 139]
[3] Cc1cc(-c2[nH]nc(C(=O)NCC3CN(CC(C)(C)O)CCO3)c2C(C)C)cn2ncnc12 (stereo not shown)
[4] CC(C)c1c(C(=O)NC2CCN(C(C)C)CC2)n[nH]c1-c1ccnc2[nH]ncc12
[5] COc1cc(-c2[nH]nc(-c3ccc(C4CCNCC4)cn3)c2C(C)C)cn2ncnc12
### Prompt Order these by pIC50, descending, and give the full ranking. Write the labels, ordered according to the request.
### Response 1, 4, 3, 2, 5

[A] Cc1cc(-c2[nH]nc(C(=O)NC3CCN(CC4CCOCC4)CC3)c2C(C)C)cn2ncnc12
[B] Cc1cc(-c2[nH]nc(-c3ccc(NC(C)C)cc3)c2C(C)C)cn2ncnc12
### Prompt Decide: A or B , by lowest recorded pIC50. Refer to your chosen item by its label in the answer.
### Response B
(B: 4.60, A: 5.49)

[P] Cc1cc(-c2[nH]nc(C(=O)NC3CCC(NCC(C)(C)C)CC3)c2C(C)C)cn2ncnc12 (stereo not shown) [Example 131]
[Q] Cc1cc(-c2[nH]nc(-c3cn4c(n3)CNCC4)c2C(C)C)cn2ncnc12
### Prompt Decide: P or Q , by lowest recorded pIC50. Refer to your chosen item by its label in the answer.
### Response Q

[1] Cc1cc(-c2[nH]nc(-c3ccc4c(c3)CCNC4)c2C(C)C)cc(C)n1
[2] Cc1cc(-c2[nH]nc(C3CCC(NC4CCN(C(C)C)CC4)CC3)c2C(C)C)cn2ncnc12 (single isomer, unassigned) [Example 289]
### Prompt I'd appreciate it if you could identify which of 1 and 2 has the greater pIC50. Refer to your chosen item by its label in the answer.
### Response 1
